Measurement Description: Fluorescence spectra in solvents
Format: physicochemical
Condition Notes: cyclohexane
Here, each record is paired with measured Emission Maximum Wavelength λ em data.
// return numeric value only (unit: nm, not printed)

O=P1(c2ccccc2)C(c2ccc(N(c3ccccc3)c3ccccc3)cc2)=Cc2ccc3ccccc3c21 (stereo not shown) [Compound 6d]: 495

Q: Provide one value: measured Emission Maximum Wavelength λ em of O=P1(c2ccccc2)C(c2ccc(N(c3ccccc3)c3ccccc3)cc2)=C(c2ccccc2)c2ccccc21 (stereo not shown) [Compound 1]
Ans: 508

Q: Provide one value: measured Emission Maximum Wavelength λ em of CN(C)c1ccc(C2=Cc3ccccc3P2(=O)c2ccccc2)cc1 (stereo not shown) [Compound 3]
Ans: 456

Q: Provide one value: measured Emission Maximum Wavelength λ em of O=P1(c2ccccc2)C(c2cc3c4c(c2)CCCN4CCC3)=Cc2cc3ccccc3cc21 (stereo not shown) [Compound 6c]
Ans: 466

Q: Provide one value: measured Emission Maximum Wavelength λ em of O=P1(c2ccccc2)C2=C(c3ccccc31)C(c1ccccc1)(c1ccccc1)c1cc(N(c3ccccc3)c3ccccc3)ccc12 (stereo not shown) [Compound 7a]
Ans: 482

Q: Provide one value: measured Emission Maximum Wavelength λ em of O=P1(c2ccccc2)C(c2ccc(N(c3ccccc3)c3ccccc3)cc2)=Cc2ccccc21 (stereo not shown) [Compound 2]
Ans: 456

Q: Provide one value: measured Emission Maximum Wavelength λ em of O=P1(c2ccccc2)C(c2ccc(N(c3ccccc3)c3ccccc3)cc2)=Cc2cc3ccccc3cc21 (stereo not shown) [Compound 6b]
Ans: 450

* * *

Measurement Description: UV-Vis absorption spectra in solvents
Type: physicochemical
Condition Notes: CH3CN
Here, each record is paired with measured Molar Absorption Coefficient ϵ data.

Known Molar Absorption Coefficient ϵ results, listed for orientation:
O=P1(c2ccccc2)C2=C(c3ccccc31)C(c1ccccc1)(c1ccccc1)c1cc(N(c3ccccc3)c3ccccc3)ccc12 (stereo not drawn): 1.62 10^4M^−1 cm^−1
O=P1(c2ccccc2)C(c2ccc(N(c3ccccc3)c3ccccc3)cc2)=Cc2cc3ccccc3cc21 (stereo not drawn): 3.25 10^4M^−1 cm^−1
O=P1(c2ccccc2)C(c2ccc(N(c3ccccc3)c3ccccc3)cc2)=Cc2ccccc21 (stereo not drawn): 1.77 10^4M^−1 cm^−1
O=P1(c2ccccc2)C(c2cc3c4c(c2)CCCN4CCC3)=Cc2cc3ccccc3cc21 (stereo not drawn): 2.35 10^4M^−1 cm^−1
CN(C)c1ccc(C2=Cc3ccccc3P2(=O)c2ccccc2)cc1 (stereo not drawn): 1.73 10^4M^−1 cm^−1

Q: Provide one value: measured Molar Absorption Coefficient ϵ of O=P1(c2ccccc2)C(c2ccc(N(c3ccccc3)c3ccccc3)cc2)=Cc2ccc3ccccc3c21 (stereo not drawn)
Ans: 2.07 10^4M^−1 cm^−1
